biological target: BRM (Homo sapiens, UniProt P51531); construct: made in house; host or cells: High Five insect cells; assay: ATPase catalytic activity of BRM, ADP-Glo in vitro biochemical assay; details: ATPase catalytic activity, ADP-Glo; 30 nM BRM, 400 μM ATP
Sequence (P51531 whole entry): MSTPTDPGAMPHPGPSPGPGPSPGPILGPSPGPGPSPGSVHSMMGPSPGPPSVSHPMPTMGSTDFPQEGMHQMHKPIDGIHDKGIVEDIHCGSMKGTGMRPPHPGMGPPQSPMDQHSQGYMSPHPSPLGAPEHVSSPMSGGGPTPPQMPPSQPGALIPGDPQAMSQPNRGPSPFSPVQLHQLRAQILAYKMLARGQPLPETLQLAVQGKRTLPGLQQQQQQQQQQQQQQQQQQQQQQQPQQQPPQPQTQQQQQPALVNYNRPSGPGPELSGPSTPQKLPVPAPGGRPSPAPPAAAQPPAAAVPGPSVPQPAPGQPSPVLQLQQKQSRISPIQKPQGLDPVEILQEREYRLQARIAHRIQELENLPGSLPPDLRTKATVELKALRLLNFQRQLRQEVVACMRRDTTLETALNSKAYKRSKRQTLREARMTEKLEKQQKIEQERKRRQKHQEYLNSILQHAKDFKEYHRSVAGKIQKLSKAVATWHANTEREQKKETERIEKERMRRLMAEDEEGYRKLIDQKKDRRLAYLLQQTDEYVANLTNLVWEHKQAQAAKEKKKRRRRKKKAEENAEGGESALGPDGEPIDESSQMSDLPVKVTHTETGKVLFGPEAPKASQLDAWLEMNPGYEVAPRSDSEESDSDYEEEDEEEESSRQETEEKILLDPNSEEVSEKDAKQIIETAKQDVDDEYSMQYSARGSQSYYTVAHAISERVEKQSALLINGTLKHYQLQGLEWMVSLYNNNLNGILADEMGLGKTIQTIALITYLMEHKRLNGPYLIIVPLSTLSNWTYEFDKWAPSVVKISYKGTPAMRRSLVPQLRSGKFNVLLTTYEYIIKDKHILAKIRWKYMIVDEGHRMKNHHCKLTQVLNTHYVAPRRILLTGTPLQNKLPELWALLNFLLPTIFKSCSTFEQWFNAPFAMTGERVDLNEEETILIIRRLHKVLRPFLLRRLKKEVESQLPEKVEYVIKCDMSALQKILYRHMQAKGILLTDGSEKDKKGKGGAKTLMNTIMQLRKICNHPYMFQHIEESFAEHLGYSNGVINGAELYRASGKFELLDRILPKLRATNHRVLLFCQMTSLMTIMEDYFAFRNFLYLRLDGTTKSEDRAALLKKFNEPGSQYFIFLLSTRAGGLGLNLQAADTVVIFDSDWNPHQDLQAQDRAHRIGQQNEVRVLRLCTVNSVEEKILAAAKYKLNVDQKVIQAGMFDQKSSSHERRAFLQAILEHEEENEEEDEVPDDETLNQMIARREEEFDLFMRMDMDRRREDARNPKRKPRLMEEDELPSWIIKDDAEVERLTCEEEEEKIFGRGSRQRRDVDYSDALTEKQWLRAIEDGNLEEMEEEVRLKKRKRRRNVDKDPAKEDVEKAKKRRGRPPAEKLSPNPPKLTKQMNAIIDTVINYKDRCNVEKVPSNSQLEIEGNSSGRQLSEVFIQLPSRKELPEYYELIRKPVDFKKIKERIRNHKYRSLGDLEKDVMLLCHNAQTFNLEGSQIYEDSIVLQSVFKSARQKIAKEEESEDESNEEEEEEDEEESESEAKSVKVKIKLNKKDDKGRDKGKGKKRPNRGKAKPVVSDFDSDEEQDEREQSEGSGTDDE
Output 1 for records whose IC50 is lower than 30 nM, -1 for records at or above 30 nM.

compound | label class
O=C(NCc1cc2nc(-c3cccc(OCC4CC4(F)F)n3)ccc2cn1)c1ccc2c(c1)S(=O)(=O)CCOC2 (stereo not shown) | 1
Cc1cnc2c(c1C)CCCN2c1ccc2cnc(CNC(=O)c3ccc4c(c3)S(=O)(=O)CCOC4)cc2n1 | 1
Cc1ccc2c(n1)N(c1ccc3cnc(CNC(=O)c4ccc5c(c4)S(=O)(=O)CCOC5)cc3n1)CCN2C | -1
CC1CCc2ccc(C(=O)NCc3cc4nc(-c5cccc(N6C[C@@H](C)O[C@@H](C)C6)n5)ccc4cn3)cc2S1(=O)=O (stereo partly shown) | 1
COc1nc(-c2ccc3cnc(CNC(=O)c4ccc5c(c4)S(=O)(=O)[C@@H](C)COC5)cc3n2)ccc1C(F)F | 1
O=C(NCc1cc2nc(-c3cccc4c3CC3COCCN43)ccc2cn1)c1ccc2c(c1)S(=O)(=O)CCOC2 (stereo not shown) | -1
Cc1cc(C(=O)NCc2cc3nc(-c4cccc(N5C[C@@H](C)O[C@@H](C)C5)n4)ccc3cn2)cc2c1COCCS2(=O)=O | 1

---

target: BRG-1 (Homo sapiens, UniProt P51532); construct: made in house; host or cells: High Five insect cells; test: ATPase catalytic activity of BRG-1, ADP-Glo in vitro biochemical assay; details: ATPase catalytic activity, ADP-Glo; 30 nM BRG-1, 400 μM ATP; read-out: BRG1 IC50
Sequence (P51532 whole entry): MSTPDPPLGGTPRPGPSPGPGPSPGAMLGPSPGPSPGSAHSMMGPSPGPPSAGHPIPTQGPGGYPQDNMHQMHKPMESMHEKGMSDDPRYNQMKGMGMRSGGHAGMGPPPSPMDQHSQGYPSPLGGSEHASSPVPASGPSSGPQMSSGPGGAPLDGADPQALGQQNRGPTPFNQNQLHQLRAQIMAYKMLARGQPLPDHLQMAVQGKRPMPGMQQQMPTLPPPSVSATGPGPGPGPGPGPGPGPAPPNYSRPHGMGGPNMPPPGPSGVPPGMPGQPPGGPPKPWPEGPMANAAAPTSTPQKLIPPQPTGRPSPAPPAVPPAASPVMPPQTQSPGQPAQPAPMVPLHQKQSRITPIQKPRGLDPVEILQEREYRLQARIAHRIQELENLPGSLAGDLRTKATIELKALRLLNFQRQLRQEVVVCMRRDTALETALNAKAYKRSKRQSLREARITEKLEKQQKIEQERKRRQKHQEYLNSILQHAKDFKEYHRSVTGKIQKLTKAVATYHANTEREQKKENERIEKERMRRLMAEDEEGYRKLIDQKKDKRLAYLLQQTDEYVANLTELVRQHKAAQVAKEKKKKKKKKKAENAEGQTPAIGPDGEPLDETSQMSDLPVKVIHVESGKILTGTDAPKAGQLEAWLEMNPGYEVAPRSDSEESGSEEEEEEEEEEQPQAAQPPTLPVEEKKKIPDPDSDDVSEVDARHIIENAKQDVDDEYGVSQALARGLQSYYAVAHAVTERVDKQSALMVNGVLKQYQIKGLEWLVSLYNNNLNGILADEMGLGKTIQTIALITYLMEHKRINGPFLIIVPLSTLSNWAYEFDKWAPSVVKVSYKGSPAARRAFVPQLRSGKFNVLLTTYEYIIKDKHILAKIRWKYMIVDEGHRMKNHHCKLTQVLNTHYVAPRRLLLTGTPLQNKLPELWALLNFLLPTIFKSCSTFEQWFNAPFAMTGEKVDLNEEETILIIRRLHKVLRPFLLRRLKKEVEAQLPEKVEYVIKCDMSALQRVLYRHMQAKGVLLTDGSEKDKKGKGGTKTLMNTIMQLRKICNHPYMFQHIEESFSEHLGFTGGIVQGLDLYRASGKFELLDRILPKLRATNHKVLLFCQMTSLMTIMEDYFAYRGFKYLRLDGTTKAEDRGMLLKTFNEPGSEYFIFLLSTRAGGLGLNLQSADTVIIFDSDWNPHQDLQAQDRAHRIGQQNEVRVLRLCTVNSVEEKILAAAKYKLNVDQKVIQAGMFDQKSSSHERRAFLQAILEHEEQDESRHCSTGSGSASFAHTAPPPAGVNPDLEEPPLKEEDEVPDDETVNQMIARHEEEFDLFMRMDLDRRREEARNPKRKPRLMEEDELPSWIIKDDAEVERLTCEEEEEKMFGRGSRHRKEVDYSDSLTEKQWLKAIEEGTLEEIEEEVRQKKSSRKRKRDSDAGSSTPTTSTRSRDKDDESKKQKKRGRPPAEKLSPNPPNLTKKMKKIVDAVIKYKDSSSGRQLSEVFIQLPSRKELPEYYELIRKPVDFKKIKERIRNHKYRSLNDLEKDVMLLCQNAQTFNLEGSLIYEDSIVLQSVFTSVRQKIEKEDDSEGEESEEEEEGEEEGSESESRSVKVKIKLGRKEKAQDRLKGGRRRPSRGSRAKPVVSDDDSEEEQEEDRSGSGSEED
Measured IC50 values are reported for all entries that follow.
readout kind: IC50 (nM)

compound | unit name | observed value
CN1CCN(c2ccc3cnc(CNC(=O)c4ccc5c(c4)S(=O)(=O)CCOC5)cc3n2)c2ncccc21 | nM | 178
COc1cnc2c(c1)OCCN2c1ccc2cnc(CNC(=O)c3ccc4c(c3)S(=O)(=O)CCOC4)cc2n1 | nM | 62.7
COc1cc(C(F)(F)F)ccc1-c1ccc2cnc(CNC(=O)c3ccc4c(c3)S(=O)(=O)CCOC4)cc2n1 | nM | 288
CC1CN(c2cccc(-c3ccc4cnc(CNC(=O)c5ccc6c(c5)S(=O)(=O)C(C)COC6C)cc4n3)n2)CC(C)O1 (centres unmarked) | nM | 632
Cc1ccc2c(n1)CN(c1ccc3cnc(CNC(=O)c4ccc5c(c4)S(=O)(=O)CCOC5)cc3n1)CC2 | nM | 2270
COC[C@H]1CCCN(c2cccc(-c3ccc4cnc(CNC(=O)c5ccc6c(c5)S(=O)(=O)CCOC6)cc4n3)n2)C1 | nM | 109
COC[C@H](C)Oc1ccc2c(c1)N(c1ccc3cnc(CNC(=O)c4ccc5c(c4)S(=O)(=O)CCOC5)cc3n1)CCC2 | nM | 37.9
O=C(NCc1cc2nc(-c3ccc4c(n3)C(F)(F)CC4)ccc2cn1)c1ccc2c(c1)S(=O)(=O)CCOC2 | nM | 549

---

Measured Ratio* values are reported for all entries that follow.
biological target: BRM (Homo sapiens, UniProt P51531); construct: made in house; host or cells: High Five insect cells; experiment: ATPase catalytic activity of BRM, ADP-Glo in vitro biochemical assay; conditions: ratio BRG1 IC50 / BRM IC50
readout kind: Ratio*

molecule | observed value
COc1ccc(F)c2c1CCCN2c1ccc2cnc(CNC(=O)c3ccc4c(c3)S(=O)(=O)CCOC4)cc2n1 [Compound 718] | 9.44
O=C(NCc1cc2nc(N3CCOc4cc(C5CC5)c(F)c(F)c43)ccc2cn1)c1ccc2c(c1)S(=O)(=O)CCOC2 [Compound 805] | 11.56
O=C(NCc1cc2nc(N3CCCc4cc5c(cc43)OCO5)ccc2cn1)c1ccc2c(c1)S(=O)(=O)CCOC2 [Compound 792] | 9.88
CS(=O)(=O)c1cc(C(=O)NCc2cc3nc(N4CCCc5cc(C6CC6)cnc54)ccc3cn2)cnc1C(F)F [Compound 724] | 18.41
O=C(NCc1cc2nc(N3CCN(C4CC4)c4cc(C5CC5)cnc43)ccc2cn1)c1ccc2c(c1)S(=O)(=O)CCOC2 [Compound 756] | 11.62

---

molecular target: BRG-1 (Homo sapiens, UniProt P51532); construct: made in house; host or cells: High Five insect cells; experiment: ATPase catalytic activity of BRG-1, ADP-Glo in vitro biochemical assay; conditions: ADP-Glo ATPase assay, 30 nM BRG-1, 400 μM ATP; read-out: BRG1 IC50
pIC50: −log10 of the molar value.
readout kind: pIC50

item smiles | readout kind | observed value
Cc1ccnc2c1CCN2c1ccc2cnc(CNC(=O)c3ccc4c(c3)S(=O)(=O)CCOC4)cc2n1 | pIC50 | 6.92
CC(C)c1cccc(-c2ccc3cnc(CNC(=O)c4ccc5c(c4)S(=O)(=O)CCOC5)cc3n2)n1 | pIC50 | 6.02
C[C@H]1COCc2ccc(C(=O)NCc3cc4nc(-c5cccc(N6C[C@H]7COC[C@H]7C6)n5)ccc4cn3)cc2S1(=O)=O | pIC50 | 6.36
COc1ncc(F)c2c1CCCN2c1ccc2cnc(CNC(=O)c3ccc4c(c3)S(=O)(=O)CCOC4)cc2n1 | pIC50 | 6.61

---

molecular target: BRM (Homo sapiens, UniProt P51531); construct: made in house; host or cells: High Five insect cells; experiment: ATPase catalytic activity of BRM, ADP-Glo in vitro biochemical assay; conditions: ADP-Glo ATPase assay, 30 nM BRM, 400 μM ATP
readout kind: IC50

item smiles | test target | readout kind | observed value
Cn1cnc2c(-c3ccc4cnc(CNC(=O)c5ccc6c(c5)S(=O)(=O)CCOC6)cc4n3)cccc21 | BRM (Homo sapiens, UniProt P51531) | IC50 | 188 nM
CO[C@@H](C)CN(C)c1cccc(-c2ccc3cnc(CNC(=O)c4ccc5c(c4)S(=O)(=O)CCOC5)cc3n2)n1 | BRM (Homo sapiens, UniProt P51531) | IC50 | 17.5 nM
C[C@H]1COCCN1c1cccc(-c2ccc3cnc(CNC(=O)c4ccc5c(c4)S(=O)(=O)CCOC5)cc3n2)n1 | BRM (Homo sapiens, UniProt P51531) | IC50 | 180 nM

---

target: BRM (Homo sapiens, UniProt P51531); construct: made in house; host or cells: High Five insect cells; test: ATPase catalytic activity of BRM, ADP-Glo in vitro biochemical assay; conditions: ADP-Glo ATPase assay, 30 nM BRM, 400 μM ATP
pIC50: −log10 of the molar value.
readout kind: pIC50

item smiles | observed value
Cc1ncc(C(=O)NCc2cc3nc(-c4cccc(N5C[C@@H](C)O[C@@H](C)C5)n4)ccc3cn2)cc1S(C)(=O)=O | 8.25
C[C@@H]1CN(c2cccc(-c3ccc4cnc(CNC(=O)c5ccc6c(c5)S(=O)(=O)CCOC6)cc4n3)n2)C[C@@H](C)O1 | 8.15
CCO[C@@H]1CCOc2c(-c3ccc4cnc(CNC(=O)c5ccc6c(c5)S(=O)(=O)CCOC6)cc4n3)cccc21 | 7.79
O=C(NCc1cc2nc(N3CCOc4cc(C(F)F)ncc43)ccc2cn1)c1ccc2c(c1)S(=O)(=O)CCOC2 | 7.13
O=C(NCc1cc2nc(-c3cccc([C@H]4CC4(F)F)c3)ccc2cn1)c1ccc2c(c1)S(=O)(=O)CCOC2 | 7.12
Cn1cccc(-c2ccc3cnc(CNC(=O)c4ccc5c(c4)S(=O)(=O)CCOC5)cc3n2)c1=O | 5.50
O=C(NCc1cc2cc(N3CCOc4cc(C5CC5)cnc43)cnc2cn1)c1ccc2c(c1)S(=O)(=O)CCOC2 | 6.95
O=C(NCc1cc2nc(-c3cccc(OCC(F)F)n3)ccc2cn1)c1ccc2c(c1)S(=O)(=O)CCOC2 | 7.23
O=C(NCc1cc2cc(N3CCOc4cnc(C5CC5)nc43)ccc2cn1)c1ccc2c(c1)S(=O)(=O)CCOC2 | 7.44
C[C@H]1CN(c2cccc(-c3ccc4cnc(CNC(=O)c5ccc6c(c5)S(=O)(=O)CCOC6)cc4n3)n2)CCO1 | 8.16
C[C@@H]1CN(c2cccc(-c3ccc4cnc(CNC(=O)c5ccc6c(c5)S(=O)(=O)[C@@H](C)CCO6)cc4n3)n2)C[C@H](C)O1 | 8.12

---

Measured Ratio* (BRG1 IC50 (μM) divided by BRM IC50 (μM)) values are reported for all entries that follow.
molecular target: BRM (Homo sapiens, UniProt P51531); construct: made in house; host or cells: High Five insect cells; assay: ATPase catalytic activity of BRM, ADP-Glo in vitro biochemical assay; settings: selectivity ratio BRG1 IC50 / BRM IC50
readout kind: Ratio* (BRG1 IC50 (μM) divided by BRM IC50 (μM))

compound | observed value
O=C(NCc1cc2cc(-c3cncc(N4CCC4)n3)ccc2cn1)c1ccc2c(c1)S(=O)(=O)CCOC2 [Compound 257] | 6.99
C[C@@H]1CN(c2cccc(-c3ccc4cnc(CNC(=O)c5ccc6c(c5)S(=O)(=O)CCN(C)C6)cc4n3)n2)C[C@H](C)O1 [Compound 51] | 5.74
COCCN1CCOc2c(-c3ccc4cnc(CNC(=O)c5ccc(C(F)F)c(S(C)(=O)=O)c5)cc4n3)cccc21 [Compound 89] | 21.02
COCCS(=O)(=O)c1cc(C(=O)NCc2cc3nc(-c4cncc(C5CC5)n4)ccc3cn2)ccc1Cl [Compound 238] | 19.12
CC(C)(F)c1cncc(-c2ccc3cnc(CNC(=O)c4ccc5c(c4)S(=O)(=O)CCOC5)cc3n2)n1 [Compound 262] | 5.63
C[C@@H]1CN(c2nc(-c3ccc4cnc(CNC(=O)c5ccc6c(c5)S(=O)(=O)CCOC6)cc4n3)ccc2F)C[C@H](C)O1 [Compound 111] | 4.58
CC1(c2cccc(-c3ccc4cnc(CNC(=O)c5ccc6c(c5)S(=O)(=O)CCOC6)cc4n3)n2)CC1 [Compound 210] | 9.92
